Each record here notes measured pIC50.
# Tested on: MOLM-13 cells
# run-description: MOLM13 CTG - analysis of cell proliferation (Cell Titre Glo)
# Type: cell-based
# experimental-context: Homo sapiens, geometric mean, read-out: CTG MOLM13 cells IC50 GEOMEAN
Conceptually, pIC50 converts a concentration in mol/L into minus its log10.

Known pIC50 results, listed for orientation:
c1cc2[nH]ncc2c(-c2cn(Cc3cn4cc(CNCC5CCC5)ccc4n3)nn2)n1; 5.48
O=C(NCc1cn2cc(CNCC3CCC3)ccc2n1)c1cc(=O)n2ccccc2n1; 5.74

# `Brc1cc(-c2cn(Cc3cn4cc(CNCC5CCC5)ccc4n3)nn2)c2cn[nH]c2c1` with MOLM-13 cells: pIC50 is 6.44

Bench note, MOLM-13 cells: entry `c1cc(-c2cn(Cc3cn4cc(CNCC5CCCCC5)ccc4n3)nn2)c2cn[nH]c2c1` , its pIC50 = 5.72

# pIC50 measured on MOLM-13 cells for item O=C(NCc1cn2cc(C(Cc3ccccc3)NCC3CCC3)ccc2n1)c1cc(=O)n2ccccc2n1 (stereo not shown) = 4.95

`FC1(F)CC(CNCc2ccc3nc(Cn4cc(-c5cc(Br)cc6[nH]ncc56)nn4)cn3c2)C1` on MOLM-13 cells gives pIC50 = 6.15

Reported pIC50 (MOLM-13 cells) for entry `OC1(CNCc2ccc3nc(Cn4cc(-c5nccc6[nH]ncc56)nn4)cn3c2)CCC1` is 4.97

----------
# measured-on: METTL3/14 (Homo sapiens, UniProt Q86U44)
# Construct: The enzyme used was full-length his-tagged METTL3; His; made in house
# Sequence (Q86U44 whole entry): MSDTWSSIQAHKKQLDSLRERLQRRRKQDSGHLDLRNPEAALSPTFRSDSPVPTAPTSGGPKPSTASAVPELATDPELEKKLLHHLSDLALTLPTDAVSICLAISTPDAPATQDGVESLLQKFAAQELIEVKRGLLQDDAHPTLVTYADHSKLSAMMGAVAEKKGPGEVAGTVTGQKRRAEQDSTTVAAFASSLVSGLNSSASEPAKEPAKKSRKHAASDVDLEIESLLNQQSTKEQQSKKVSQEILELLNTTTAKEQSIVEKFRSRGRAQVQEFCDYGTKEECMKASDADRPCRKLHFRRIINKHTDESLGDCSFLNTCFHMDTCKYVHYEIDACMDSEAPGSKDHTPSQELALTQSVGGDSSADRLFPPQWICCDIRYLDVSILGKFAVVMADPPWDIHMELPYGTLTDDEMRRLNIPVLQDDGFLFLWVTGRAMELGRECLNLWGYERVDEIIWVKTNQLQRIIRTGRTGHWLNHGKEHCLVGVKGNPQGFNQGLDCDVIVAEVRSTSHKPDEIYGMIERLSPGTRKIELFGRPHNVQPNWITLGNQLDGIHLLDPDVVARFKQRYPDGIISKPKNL
# Sequence (Q9HCE5 whole entry partner): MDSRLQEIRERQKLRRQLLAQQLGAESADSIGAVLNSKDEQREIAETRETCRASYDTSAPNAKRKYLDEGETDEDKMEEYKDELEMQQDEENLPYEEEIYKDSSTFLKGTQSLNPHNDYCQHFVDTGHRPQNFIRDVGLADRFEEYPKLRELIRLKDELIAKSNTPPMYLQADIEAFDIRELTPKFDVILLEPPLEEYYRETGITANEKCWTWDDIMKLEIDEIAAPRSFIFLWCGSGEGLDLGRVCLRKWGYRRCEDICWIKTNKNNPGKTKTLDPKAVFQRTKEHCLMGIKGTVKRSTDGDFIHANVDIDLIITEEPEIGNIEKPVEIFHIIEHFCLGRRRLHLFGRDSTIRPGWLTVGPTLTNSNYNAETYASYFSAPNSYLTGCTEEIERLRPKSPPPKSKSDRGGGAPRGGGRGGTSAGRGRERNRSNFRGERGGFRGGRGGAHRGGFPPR
# run-description: METTL3/14 methyltransferase assay (METTL3_14 RFMS, RapidFire mass spectrometry);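 note: recombinant His-tagged METTL3 with FLAG-tagged METTL14 from baculovirus, SAH product quantified by mass spectrometry against isotope-labelled internal standards, 60 min at room temperature, scaled between no-RNA and DMSO-only wells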
# Type: biochemical
# experimental-context: 5 nM METTL3/14, 0.2 μM RNA substrate, 0.5 μM SAM; lower limit of the assay IC50=5 nM; Compounds 1-62; read-out: METTL3_14 RFMS IC50
Where a name gives a salt, the structure may show the parent alone.
# reported IC50; entries follow
Dear colleague, please return just the value in µM, with no unit written.

Solved cases (3 shown):
O=C(NCc1cn2cc(CNCC(F)(F)F)ccc2n1)c1cc(=O)n2ccccc2n1 [Compound 51]; 1.22
O=C(NCc1cn2cc(C3CC3)ccc2n1)c1cc(=O)n2ccccc2n1 [Compound 59]; 0.939
CNCc1ccc2nc(CNC(=O)c3cccc4[nH]ncc34)cn2c1 [Compound 44, dihydrochloride]; 5.05

Entry O=C(NCc1cn2ccccc2n1)c1cc(=O)c2ccccc2o1 [Compound 13] , IC50 reported as 4.18

The reported IC50 of the molecule C=Cc1ccn2cc(CNC(=O)c3cc(=O)n4ccccc4n3)nc2c1 [Compound 60] was 0.7

get_value(item= O=C(NCc1cn2cc(Nc3cccnc3)ccc2n1)c1cccc2[nH]ncc12 [Compound 37] , readout=IC50) returns 4.74

For record O=C(NCc1cn2cc(Br)ccc2n1)c1cc(=O)n2ccccc2n1 [Compound 23] the listed IC50 is 1.79

IC50 reading for O=C(NCc1cn2cc(NCc3cccnc3)ccc2n1)c1cccc2[nH]ncc12 [Compound 32] : 7.34

# IC50 (molecule: COc1cccc(-c2ccc3nc(CNC(=O)c4cccc5[nH]ncc45)cn3c2)c1 [Compound 34] ) is 5.35

IC50 in this record for O=Cc1ccc2nc(CNC(=O)c3cc(=O)n4ccccc4n3)cn2c1 [Example 49] : 1.04

molecule O=C(NCc1cn2cc(Cl)ccc2n1)c1cccc2[nH]ncc12 [Compound 4] , IC50 observed: 6.07
